Each record here notes measured activation.
# Target Desc: G-protein coupled receptor 151 (Homo sapiens)
# Protocol Details: activators of human GPR151, primary screen, cell-based, PathHunter beta-arrestin, luminescence (AID 1508602);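 also: 0% = median of compound wells and 100% = cells with positive control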
# Assay Conditions: PathHunter beta-arrestin GPR151 cells, at 11.2 µM, active compounds read high
Among all 650,000 compounds or so, about 6,800 (1%) were called active. The entries come from a sample that favours actives as a whole.

{"Compound": "C=CCn1c2ccccc2c2nnc(SC(CC)C(=O)Nc3nc(C)c(C(=O)OCC)s3)nc21 (stereo unspecified)", "activation / %": -0.843}
{"Compound": "Cc1[nH][nH]c(=O)c1C(c1ccc(-c2ccc(Cl)cc2)o1)c1c(C)[nH][nH]c1=O", "activation / %": 0.733}
{"Compound": "O=C(c1ccccc1)N1CCN(C2CC(=O)N(c3cc(Cl)cc(Cl)c3)C2=O)CC1 (stereo unspecified)", "activation / %": -0.358}
{"Compound": "COc1ccc(C(=O)c2snc(Nc3ccccc3)c2N)cc1", "activation / %": 0.834}
{"Compound": "Cc1sc(NC(=O)CN(C(=O)CCc2ccccc2)C2CCCC2)c(C(N)=O)c1C", "activation / %": 0.0057}
{"Compound": "Cc1ccc(S(=O)(=O)N2CC3CC3C2C(=O)Nc2ccc(F)cc2)cc1 (stereo unspecified)", "activation / %": 0.0458}
{"Compound": "Nc1cccc(N=Cc2c(O)[nH]c(=S)[nH]c2=O)c1", "activation / %": -0.879}
{"Compound": "O=C(NNC(=S)NC(=O)c1ccccc1[N+](=O)[O-])c1ccc(O)cc1", "activation / %": -0.124}
{"Compound": "Cc1c(C(=O)Nc2ccc(F)cc2Cl)sc2ncn(CC(=O)N3CCOCC3)c(=O)c12", "activation / %": -1.55}
{"Compound": "Cc1[nH][nH]c(=O)c1C(c1ccc(-c2ccc(F)cc2[N+](=O)[O-])o1)c1c(C)[nH][nH]c1=O", "activation / %": 6.05}
{"Compound": "O=C1CC(c2nc3ccccc3n2CC(O)COc2ccccc2)CN1c1ccccc1 (stereo unspecified)", "activation / %": 1.94}
{"Compound": "NC(=O)c1ccc(NC(=O)CSc2nc(N)c(NC(=O)c3ccccc3)c(=O)[nH]2)cc1", "activation / %": -0.254}
{"Compound": "O=c1[nH]c(=S)[nH]c(O)c1C=Nc1ccc(F)c(Cl)c1", "activation / %": 5.26}
{"Compound": "C=CCN(CC=C)C(=O)CSc1nnc2c3ccccc3n(C)c2n1", "activation / %": 0.64}
{"Compound": "COc1cccc(NC(=O)CSc2nnc(-c3ccc(NS(C)(=O)=O)cc3)o2)c1", "activation / %": 0.627}
{"Compound": "COc1ccc(NC(=O)Cc2ccc(C)cc2)cc1", "activation / %": -2.5}

* * *

# Target Desc: G-protein coupled receptor 151 (Homo sapiens) (UniProt Q8TDV0)
# Sequence (Q8TDV0 whole entry, looked up): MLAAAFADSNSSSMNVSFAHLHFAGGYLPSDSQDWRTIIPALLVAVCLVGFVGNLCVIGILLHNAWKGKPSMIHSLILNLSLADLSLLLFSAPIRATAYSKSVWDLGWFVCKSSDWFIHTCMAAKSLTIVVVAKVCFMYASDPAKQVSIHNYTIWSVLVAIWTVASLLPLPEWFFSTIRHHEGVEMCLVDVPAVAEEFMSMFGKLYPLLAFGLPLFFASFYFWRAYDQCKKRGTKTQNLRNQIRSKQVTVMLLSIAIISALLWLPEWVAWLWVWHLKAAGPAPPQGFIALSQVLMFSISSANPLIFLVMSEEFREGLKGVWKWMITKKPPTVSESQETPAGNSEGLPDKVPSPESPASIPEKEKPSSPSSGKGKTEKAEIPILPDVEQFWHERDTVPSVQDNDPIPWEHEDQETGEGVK
# Protocol Details: activators of human GPR151, primary screen, cell-based, PathHunter beta-arrestin, luminescence (AID 1508602);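 also: 0% = median of compound wells and 100% = cells with positive control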
# Assay Conditions: PathHunter beta-arrestin GPR151 cells, at 11.2 µM, active compounds read high
The campaign covered roughly 650,000 compounds. About 6,800 (1%) were called active. The sample as a whole holds a higher share of actives than the screen did.
Examples of compounds with documented activation follow.

{"Compound": "CCOc1ccc(OCCOCCN2CC(C)OC(C)C2)cc1 (configuration not stated)", "Target Desc": "G-protein coupled receptor 151 (Homo sapiens) (UniProt Q8TDV0)", "Endpoint Unit": "%", "activation": -1.18}
{"Compound": "N=c1c(C(=O)NCc2cccnc2)cc2c(=O)n3ccccc3nc2n1CCO", "Target Desc": "G-protein coupled receptor 151 (Homo sapiens) (UniProt Q8TDV0)", "Endpoint Unit": "%", "activation": 1.18}
{"Compound": "CCOc1ccc(CN2CCN(Cc3ccc(C)o3)C(CCO)C2)cc1CO (configuration not stated)", "Target Desc": "G-protein coupled receptor 151 (Homo sapiens) (UniProt Q8TDV0)", "Endpoint Unit": "%", "activation": 1.78}
{"Compound": "CC(C)[C@H](O)C(=O)N1CCC(C(=O)Nc2ccc3[nH]ncc3c2)CC1", "Target Desc": "G-protein coupled receptor 151 (Homo sapiens) (UniProt Q8TDV0)", "Endpoint Unit": "%", "activation": -0.359}
{"Compound": "CCSc1nnc(CC(N)=O)c2ccccc12", "Target Desc": "G-protein coupled receptor 151 (Homo sapiens) (UniProt Q8TDV0)", "Endpoint Unit": "%", "activation": -0.522}
{"Compound": "COc1ccc(O)c(C(=O)/C=C/c2ccc(F)cc2)c1", "Target Desc": "G-protein coupled receptor 151 (Homo sapiens) (UniProt Q8TDV0)", "Endpoint Unit": "%", "activation": -1.75}
{"Compound": "COc1ccc(NC(=O)c2cc(S(=O)(=O)N3CCCCC3)ccc2F)cc1", "Target Desc": "G-protein coupled receptor 151 (Homo sapiens) (UniProt Q8TDV0)", "Endpoint Unit": "%", "activation": -0.423}
{"Compound": "O=C1CCC(CCNCc2ccccc2)N1CCc1ccccc1F (configuration not stated)", "Target Desc": "G-protein coupled receptor 151 (Homo sapiens) (UniProt Q8TDV0)", "Endpoint Unit": "%", "activation": 1.45}
{"Compound": "O=C(Nc1ccc2[nH]ncc2c1)N1CCCNCC1", "Target Desc": "G-protein coupled receptor 151 (Homo sapiens) (UniProt Q8TDV0)", "Endpoint Unit": "%", "activation": 5.34}
{"Compound": "O=C1CCC(CCNCCOc2ccc(F)cc2)N1CCc1ccccc1 (configuration not stated)", "Target Desc": "G-protein coupled receptor 151 (Homo sapiens) (UniProt Q8TDV0)", "Endpoint Unit": "%", "activation": -0.404}
{"Compound": "O=C(N/N=C/c1ccccc1O)c1cc(-c2ccc(Cl)cc2)n[nH]1", "Target Desc": "G-protein coupled receptor 151 (Homo sapiens) (UniProt Q8TDV0)", "Endpoint Unit": "%", "activation": -0.397}
{"Compound": "O=C(Nc1ccc(S(=O)(=O)Nc2ncccn2)cc1)c1cncc(Br)c1", "Target Desc": "G-protein coupled receptor 151 (Homo sapiens) (UniProt Q8TDV0)", "Endpoint Unit": "%", "activation": -0.902}
{"Compound": "Cc1c(C)c2ccc(O)c(I)c2oc1=O", "Target Desc": "G-protein coupled receptor 151 (Homo sapiens) (UniProt Q8TDV0)", "Endpoint Unit": "%", "activation": 0.449}
{"Compound": "COc1ccc(C(=O)C2CCN(CC(N)=O)CC2)cc1", "Target Desc": "G-protein coupled receptor 151 (Homo sapiens) (UniProt Q8TDV0)", "Endpoint Unit": "%", "activation": -1.68}
{"Compound": "CN(C)S(=O)(=O)c1cccc(C(=O)N2CCCc3ccccc32)c1", "Target Desc": "G-protein coupled receptor 151 (Homo sapiens) (UniProt Q8TDV0)", "Endpoint Unit": "%", "activation": 1.08}
{"Compound": "COc1ccc(/C=C(\\C#N)C(=O)Nc2cccc(S(=O)(=O)N3CCCCC3)c2)cc1", "Target Desc": "G-protein coupled receptor 151 (Homo sapiens) (UniProt Q8TDV0)", "Endpoint Unit": "%", "activation": 6.12}
{"Compound": "Cc1cccc(CN[C@H]2C[C@H]3C(=O)N[C@@H](CC(C)C)C(=O)N3C2)c1", "Target Desc": "G-protein coupled receptor 151 (Homo sapiens) (UniProt Q8TDV0)", "Endpoint Unit": "%", "activation": 1.59}
{"Compound": "O=C1CCC(CCNCCOc2ccccc2)N1CCc1ccccc1 (configuration not stated)", "Target Desc": "G-protein coupled receptor 151 (Homo sapiens) (UniProt Q8TDV0)", "Endpoint Unit": "%", "activation": 8.35}
{"Compound": "COCCNC(=O)c1cc2c(=O)n3ccccc3nc2n(CCc2ccccc2)c1=N", "Target Desc": "G-protein coupled receptor 151 (Homo sapiens) (UniProt Q8TDV0)", "Endpoint Unit": "%", "activation": 4.99}
{"Compound": "O=C(Nc1ccc(N2CCCC2=O)cc1)c1cncc(Br)c1", "Target Desc": "G-protein coupled receptor 151 (Homo sapiens) (UniProt Q8TDV0)", "Endpoint Unit": "%", "activation": 5.11}
{"Compound": "NC(C(=O)N1CCN(C(=O)Nc2ccc3[nH]ncc3c2)CC1)c1cccc(Br)c1 (configuration not stated)", "Target Desc": "G-protein coupled receptor 151 (Homo sapiens) (UniProt Q8TDV0)", "Endpoint Unit": "%", "activation": -1.09}
{"Compound": "CCOc1ccc(NC(=O)/C(C#N)=C\\c2ccc(OC)cc2)cc1", "Target Desc": "G-protein coupled receptor 151 (Homo sapiens) (UniProt Q8TDV0)", "Endpoint Unit": "%", "activation": -0.986}
